The reported numbers originate from patent US8895761B2.

List of pest or weed control at 250 g/ha values.
System: Avena fatua (AVEFA)
Test: Pre-emergence herbicidal glasshouse test, Avena fatua
Type: in vivo
Conditions: Avena fatua, 312 h, rate 250 g/ha, evaluated after 13 days, scale 100 = total damage to plant, 0 = no damage

| compound | pest or weed control at 250 g/ha [%] |
| --- | --- |
| CCc1cc(-c2ccc(Cl)cc2)ccc1C1=C(O)C(C)(C)OC(C)(C)C1=O | 40 |
| CCc1cc(-c2ccc(F)c(OC)c2)ccc1C1=C(O)C(C)(C)OC(C)(C)C1=O | 30 |
| CCc1cc(-c2cc(F)c(F)c(F)c2)ccc1C1=C(O)C(C)(COC)OC(C)(C)C1=O (stereo not shown) | 90 |
| CCc1cc(-c2cc(Cl)cc(Cl)c2)ccc1C1=C(O)C(C)(C)OC(C)(C)C1=O | 0 |
